Biological target: NAD-dependent protein deacylase sirtuin-5, mitochondrial (Homo sapiens) (UniProt Q9NXA8)
Sequence (Q9NXA8 whole entry, looked up): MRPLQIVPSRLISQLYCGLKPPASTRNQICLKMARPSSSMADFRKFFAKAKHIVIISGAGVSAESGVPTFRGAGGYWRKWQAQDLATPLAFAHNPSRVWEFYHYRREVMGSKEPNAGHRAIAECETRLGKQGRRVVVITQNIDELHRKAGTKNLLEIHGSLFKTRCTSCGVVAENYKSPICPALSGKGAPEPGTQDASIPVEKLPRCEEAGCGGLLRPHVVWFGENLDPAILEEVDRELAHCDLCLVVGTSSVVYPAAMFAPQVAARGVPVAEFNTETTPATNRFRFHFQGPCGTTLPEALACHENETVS
Assay: blockers of sirtuin-5 deacylase activity – biochemical, fluorescence imaging, single point, set 5, primary screen (AID 652115)
Conditions: Purified SirT5, succinyl-peptide AMC, trypsin-coupled fluorescence; at 15 µM; active compounds read high
The whole screen tested about 330,000 compounds, of which about 3,800 (1.2%) were called active. Many of the other results were omitted from the sample, so actives are more common in it than they were.
readout-type: inhibition

substance_smiles=COC(=O)C(CC#Cc1ccc2c(c1)[C@]1(C(=O)N2)[C@H](c2ccc(O)cc2)N2[C@H](c3ccccc3)[C@H](c3ccccc3)OC(=O)[C@H]2[C@@H]1C(=O)NC[C@H](O)c1ccccc1)C(=O)OC measured_result="5.09% (inactive)"
substance_smiles=CCOC(=O)[C@]12CCCC=C1N(CCC1=CCCCC1)C(=O)[C@H](CC(=O)N1CCN(C(=O)c3ccco3)CC1)C2 measured_result="16.3% (active)"
substance_smiles=CCC(=O)N[C@H]1CC[C@H](CCn2cc(-c3cccc(OC)c3)nn2)O[C@H]1CO measured_result="-2.52% (inactive)"
substance_smiles=O=C(C[C@H]1CC[C@H]2[C@@H](COC[C@@H](O)CN2Cc2ccccc2F)O1)NCc1ccccc1F measured_result="3.18% (inactive)"
